The reported numbers originate from patent US10688200B2.

// reported Total binding (TB) per item
target: PSMA (Homo sapiens, UniProt Q04609); construct: 100 μL of freshly harvested PSMA cells; endogenous in cells; host or cells: 'PSMA cells' in the method; test: In vitro binding signals of 68Ga labeled ligands in LNCaP tumor homogenates; details: Ga-68 radiolabeled ligands, 37° C. 60 min
Sequence (Q04609 whole entry): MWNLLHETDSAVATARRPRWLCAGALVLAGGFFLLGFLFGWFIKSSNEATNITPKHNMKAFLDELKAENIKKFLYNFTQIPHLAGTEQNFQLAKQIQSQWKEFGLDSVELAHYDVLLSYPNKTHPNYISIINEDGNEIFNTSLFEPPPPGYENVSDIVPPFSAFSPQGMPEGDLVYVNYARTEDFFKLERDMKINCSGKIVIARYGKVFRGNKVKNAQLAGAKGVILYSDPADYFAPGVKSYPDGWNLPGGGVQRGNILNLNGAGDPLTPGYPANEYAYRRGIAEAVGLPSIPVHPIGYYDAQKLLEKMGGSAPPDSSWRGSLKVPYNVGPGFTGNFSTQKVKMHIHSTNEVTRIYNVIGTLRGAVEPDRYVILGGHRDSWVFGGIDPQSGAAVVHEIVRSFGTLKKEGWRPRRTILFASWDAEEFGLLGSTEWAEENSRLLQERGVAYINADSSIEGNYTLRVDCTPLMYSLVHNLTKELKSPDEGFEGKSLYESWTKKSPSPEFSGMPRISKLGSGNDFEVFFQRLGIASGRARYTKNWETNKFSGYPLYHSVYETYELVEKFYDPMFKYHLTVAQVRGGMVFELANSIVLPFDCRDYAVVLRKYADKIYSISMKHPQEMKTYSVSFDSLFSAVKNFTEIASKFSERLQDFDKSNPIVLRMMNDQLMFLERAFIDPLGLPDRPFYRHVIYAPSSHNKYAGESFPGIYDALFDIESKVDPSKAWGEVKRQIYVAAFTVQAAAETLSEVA
The answer should be written as a number, with no unit following it.

MOLECULE	Total binding (TB)
O=C(O)CCc1ccc(O)c(CN(CCN(CC(=O)O)Cc2nc(CCC(=O)NCCCCCC(=O)NCCCC[C@H](NC(=O)N[C@@H](CCC(=O)O)C(=O)O)C(=O)O)ccc2O)CC(=O)O)c1	10.3
O=C(O)CCc1ccc(O)c(CN(CCN(CC(=O)O)Cc2cc(CCC(=O)NCCCCCC(=O)NCCCC[C@H](NC(=O)N[C@@H](CCC(=O)O)C(=O)O)C(=O)O)ccc2O)CC(=O)O)c1 [Compound 1a, Glu-NH—CO—NH-Lys(Ahx)-HBED-CC, reference compound]	13.5
O=C(O)CC[C@H](NC(=O)N[C@@H](CCCCNC(=O)CCCCCNC(=O)CCc1ccc(O)c(CN(CCN(CC(=O)O)Cc2cc(CCC(=O)NCC(=O)O)ccc2O)CC(=O)O)c1)C(=O)O)C(=O)O	13.4

Form field Total binding (TB) for item O=C(O)CC[C@H](NC(=O)N[C@@H](CCCCNC(=O)CCCCCNC(=O)CCc1ccc(O)c(CN(CCN(CC(=O)O)Cc2cc(CCC(=O)N[C@@H](CC(=O)O)C(=O)O)ccc2O)CC(=O)O)c1)C(=O)O)C(=O)O on PSMA (Homo sapiens, UniProt Q04609): 14.8

----------
assay: Biodistribution of radiotracers in normal mice; type: in vivo, mouse; details: normal male mice, 120 min
// reported Biodistribution: Brain per item
Numbers only; they are read as % dose/g.

COMPOUND	MEASURE_UNIT	OBSERVED_RESULT
O=C(O)CCc1ccc2c(c1)C[N+]13CC[N+]45CC(=O)[O][68Ga-3]14([O]C(=O)C3)([O]2)[O]c1ccc(CCC(=O)NCCCCCC(=O)NCCCC[C@H](NC(=O)N[C@@H](CCC(=O)O)C(=O)O)C(=O)O)cc1C5 (stereo partly drawn) [[^68Ga]1a, reference compound]	% dose/g	0.01
O=C(O)CCc1ccc2c(n1)C[N+]13CC[N+]45CC(=O)[O][68Ga-3]14([O]C(=O)C3)([O]2)[O]c1ccc(CCC(=O)NCCCCCC(=O)NCCCC[C@H](NC(=O)N[C@@H](CCC(=O)O)C(=O)O)C(=O)O)nc1C5 (stereo partly drawn) [[^68Ga]2]	% dose/g	0.03
O=C(O)CC[C@H](NC(=O)N[C@@H](CCCCNC(=O)CCCCCNC(=O)CCc1ccc2c(n1)C[N+]13CC[N+]45CC(=O)[O][68Ga-3]14([O]C(=O)C3)([O]2)[O]c1ccc(CCC(=O)NCCCCCC(=O)NCCCC[C@H](NC(=O)N[C@@H](CCC(=O)O)C(=O)O)C(=O)O)nc1C5)C(=O)O)C(=O)O (stereo partly drawn) [[^68Ga]3]	% dose/g	0.05
O=C(O)CC[C@H](NC(=O)N[C@@H](CCCCNC(=O)CCCCCNC(=O)CCc1ccc2c(c1)C[N+]13CC[N+]45CC(=O)[O][68Ga-3]14([O]C(=O)C3)([O]2)[O]c1ccc(CCC(=O)NCCNC(=O)CN2CCN(CC(=O)O)CCN(CC(=O)O)CCN(CC(=O)O)CC2)cc1C5)C(=O)O)C(=O)O (stereo partly drawn) [[^68Ga]1g]	% dose/g	0.02
O=C(O)CCc1ccc(O)c(CN(CCN(CC(=O)O)Cc2cc(CCC(=O)NCCCCCC(=O)NCCCC[C@H](NC(=O)N[C@@H](CCC(=O)O)C(=O)O)C(=O)O)ccc2O)CC(=O)O)n1 [[^68Ga]4a, metal not drawn]	% dose/g	0.02

Here is the next item to consider.
Input O=C(O)CCc1ccc2c(c1)C[N+]13CC[N+]45CC(=O)[O][68Ga-3]14([O]C(=O)C3)([O]2)[O]c1ccc(CCC(=O)NCC(=O)N[C@@H](Cc2ccc(OCC(=O)N[C@@H](Cc3ccccc3)C(=O)NCCCC[C@H](NC(=O)N[C@@H](CCC(=O)O)C(=O)O)C(=O)O)cc2)C(=O)O)cc1C5 (stereo partly drawn) [[^68Ga]5b] . Output Biodistribution: Brain: 0.02

----------
// reported Biodistribution: Blood per item
experiment: Biodistribution of radiotracers in normal mice; format: in vivo, mouse; details: normal male mice, 2 min

Input O=C(O)CC[C@H](NC(=O)N[C@@H](CCCCNC(=O)CCCCCNC(=O)CCc1ccc2c(c1)C[N+]13CC[N+]45CC(=O)[O][68Ga-3]14([O]C(=O)C3)([O]2)[O]c1ccc(CCC(=O)NCC(=O)O)cc1C5)C(=O)O)C(=O)O (stereo partly drawn) [[^68Ga]1c] . Output Biodistribution: Blood: 8.55 ± 0.07 % dose/g

----------
// reported Nonspecific binding (NSB) per item
biological target: PSMA (Homo sapiens); construct: 100 μL of freshly harvested PSMA cells; endogenous in cells; host or cells: 'PSMA cells' in the method; assay: In vitro binding signals of 68Ga labeled ligands in LNCaP tumor homogenates; details: Ga-68 radiolabeled ligands, with 1a (PSMA11) 10 μM
The answer should be written as a number, with no unit following it.

Input C[C@H](NC(=O)CCc1ccc(O)c(CN(CCN(CC(=O)O)Cc2cc(CCC(=O)NCCCCCC(=O)NCCCC[C@H](NC(=O)N[C@@H](CCC(=O)O)C(=O)O)C(=O)O)ccc2O)CC(=O)O)c1)C(=O)O . Output Nonspecific binding (NSB): 1.4

----------
// reported Biodistribution: Brain per item
assay: Biodistribution of radiotracers in normal mice; assay type: in vivo, mouse; settings: normal male mice, 2 min
Could you kindly put the unit after your number?

Record excerpt, results attached:
COMPOUND	READOUT_KIND	OBSERVED_RESULT
O=C(O)CCc1ccc2c(n1)C[N+]13CC[N+]45CC(=O)[O][68Ga-3]14([O]C(=O)C3)([O]2)[O]c1ccc(CCC(=O)NCCCCCC(=O)NCCCC[C@H](NC(=O)N[C@@H](CCC(=O)O)C(=O)O)C(=O)O)nc1C5 (stereo partly drawn) [[^68Ga]2]	Biodistribution: Brain	0.24 ± 0.02 % dose/g
O=C(O)CC[C@H](NC(=O)N[C@@H](CCCCNC(=O)CCCCCNC(=O)CCc1ccc2c(n1)C[N+]13CC[N+]45CC(=O)[O][68Ga-3]14([O]C(=O)C3)([O]2)[O]c1ccc(CCC(=O)NCCCCCC(=O)NCCCC[C@H](NC(=O)N[C@@H](CCC(=O)O)C(=O)O)C(=O)O)nc1C5)C(=O)O)C(=O)O (stereo partly drawn) [[^68Ga]3]	Biodistribution: Brain	0.33 ± 0.06 % dose/g
O=C(O)CC[C@H](NC(=O)N[C@@H](CCCCNC(=O)CCCCCNC(=O)CCc1ccc2c(c1)C[N+]13CC[N+]45CC(=O)[O][68Ga-3]14([O]C(=O)C3)([O]2)[O]c1ccc(CCC(=O)N[C@@H](CC(=O)O)C(=O)O)cc1C5)C(=O)O)C(=O)O (stereo partly drawn) [[^68Ga]1e]	Biodistribution: Brain	0.25 ± 0.07 % dose/g
O=C(O)CCc1ccc(O)c(CN(CCN(CC(=O)O)Cc2cc(CCC(=O)NCCCCCC(=O)NCCCC[C@H](NC(=O)N[C@@H](CCC(=O)O)C(=O)O)C(=O)O)ccc2O)CC(=O)O)n1 [[^68Ga]4a, metal not drawn]	Biodistribution: Brain	0.27 ± 0.04 % dose/g
O=C(O)CC[C@H](NC(=O)N[C@@H](CCCCNC(=O)CCCCCNC(=O)CCc1ccc2c(c1)C[N+]13CC[N+]45CC(=O)[O][68Ga-3]14([O]C(=O)C3)([O]2)[O]c1ccc(CCC(=O)NCCNC(=O)CN2CCN(CC(=O)O)CCN(CC(=O)O)CCN(CC(=O)O)CC2)cc1C5)C(=O)O)C(=O)O (stereo partly drawn) [[^68Ga]1g]	Biodistribution: Brain	0.29 ± 0.06 % dose/g

Here is the next item to consider.
Input C[C@H](NC(=O)CCc1ccc2c(c1)C[N+]13CC[N+]45CC(=O)[O][68Ga-3]41([O]C(=O)C3)([O]c1ccc(CCC(=O)NCCCCCC(=O)NCCCC[C@H](NC(=O)N[C@@H](CCC(=O)O)C(=O)O)C(=O)O)cc1C5)[O]2)C(=O)O (stereo partly drawn) [[^68Ga]1d] . Output Biodistribution: Brain: 0.23 ± 0.04 % dose/g

----------
assay: Biodistribution of radiotracers in normal mice; type: in vivo, mouse; details: normal male mice, 120 min
// reported Biodistribution: Pancreas per item
Numbers only; they are read as % dose/g.

Record excerpt, results attached:
COMPOUND	OBSERVED_RESULT
O=C(O)CCc1ccc2c(c1)C[N+]13CC[N+]45CC(=O)[O][68Ga-3]14([O]C(=O)C3)([O]2)[O]c1ccc(CCC(=O)NCC(=O)N[C@@H](Cc2ccc(OCC(=O)N[C@@H](Cc3ccccc3)C(=O)NCCCC[C@H](NC(=O)N[C@@H](CCC(=O)O)C(=O)O)C(=O)O)cc2)C(=O)O)cc1C5 (stereo partly drawn) [[^68Ga]5b]	0.32
O=C(O)CC[C@H](NC(=O)N[C@@H](CCCCNC(=O)CCCCCNC(=O)CCc1ccc2c(n1)C[N+]13CC[N+]45CC(=O)[O][68Ga-3]14([O]C(=O)C3)([O]2)[O]c1ccc(CCC(=O)NCCCCCC(=O)NCCCC[C@H](NC(=O)N[C@@H](CCC(=O)O)C(=O)O)C(=O)O)nc1C5)C(=O)O)C(=O)O (stereo partly drawn) [[^68Ga]3]	1.21
O=C(O)CCc1ccc2c(n1)C[N+]13CC[N+]45CC(=O)[O][68Ga-3]14([O]C(=O)C3)([O]2)[O]c1ccc(CCC(=O)NCCCCCC(=O)NCCCC[C@H](NC(=O)N[C@@H](CCC(=O)O)C(=O)O)C(=O)O)nc1C5 (stereo partly drawn) [[^68Ga]2]	0.30
O=C(O)CC[C@H](NC(=O)N[C@@H](CCCCNC(=O)CCCCCNC(=O)CCc1ccc2c(c1)C[N+]13CC[N+]45CC(=O)[O][68Ga-3]14([O]C(=O)C3)([O]2)[O]c1ccc(CCC(=O)NCCNC(=O)CN2CCN(CC(=O)O)CCN(CC(=O)O)CCN(CC(=O)O)CC2)cc1C5)C(=O)O)C(=O)O (stereo partly drawn) [[^68Ga]1g]	0.39

Input O=C(O)CCc1ccc2c(c1)C[N+]13CC[N+]45CC(=O)[O][68Ga-3]14([O]C(=O)C3)([O]2)[O]c1ccc(CCC(=O)NCCCCCC(=O)NCCCC[C@H](NC(=O)N[C@@H](CCC(=O)O)C(=O)O)C(=O)O)cc1C5 (stereo partly drawn) [[^68Ga]1a, reference compound] . Output Biodistribution: Pancreas: 0.64

Input O=C(O)CCc1ccc(O)c(CN(CCN(CC(=O)O)Cc2cc(CCC(=O)NCCCCCC(=O)NCCCC[C@H](NC(=O)N[C@@H](CCC(=O)O)C(=O)O)C(=O)O)ccc2O)CC(=O)O)n1 [[^68Ga]4a, metal not drawn] . Output Biodistribution: Pancreas: 1.02
